biological target: PI3K delta (Homo sapiens (Human), UniProt O00329); experiment: Luciferase-coupled chemiluminescence kinase assay (KinaseGlo, ATP consumption)
Sequence (O00329 whole entry): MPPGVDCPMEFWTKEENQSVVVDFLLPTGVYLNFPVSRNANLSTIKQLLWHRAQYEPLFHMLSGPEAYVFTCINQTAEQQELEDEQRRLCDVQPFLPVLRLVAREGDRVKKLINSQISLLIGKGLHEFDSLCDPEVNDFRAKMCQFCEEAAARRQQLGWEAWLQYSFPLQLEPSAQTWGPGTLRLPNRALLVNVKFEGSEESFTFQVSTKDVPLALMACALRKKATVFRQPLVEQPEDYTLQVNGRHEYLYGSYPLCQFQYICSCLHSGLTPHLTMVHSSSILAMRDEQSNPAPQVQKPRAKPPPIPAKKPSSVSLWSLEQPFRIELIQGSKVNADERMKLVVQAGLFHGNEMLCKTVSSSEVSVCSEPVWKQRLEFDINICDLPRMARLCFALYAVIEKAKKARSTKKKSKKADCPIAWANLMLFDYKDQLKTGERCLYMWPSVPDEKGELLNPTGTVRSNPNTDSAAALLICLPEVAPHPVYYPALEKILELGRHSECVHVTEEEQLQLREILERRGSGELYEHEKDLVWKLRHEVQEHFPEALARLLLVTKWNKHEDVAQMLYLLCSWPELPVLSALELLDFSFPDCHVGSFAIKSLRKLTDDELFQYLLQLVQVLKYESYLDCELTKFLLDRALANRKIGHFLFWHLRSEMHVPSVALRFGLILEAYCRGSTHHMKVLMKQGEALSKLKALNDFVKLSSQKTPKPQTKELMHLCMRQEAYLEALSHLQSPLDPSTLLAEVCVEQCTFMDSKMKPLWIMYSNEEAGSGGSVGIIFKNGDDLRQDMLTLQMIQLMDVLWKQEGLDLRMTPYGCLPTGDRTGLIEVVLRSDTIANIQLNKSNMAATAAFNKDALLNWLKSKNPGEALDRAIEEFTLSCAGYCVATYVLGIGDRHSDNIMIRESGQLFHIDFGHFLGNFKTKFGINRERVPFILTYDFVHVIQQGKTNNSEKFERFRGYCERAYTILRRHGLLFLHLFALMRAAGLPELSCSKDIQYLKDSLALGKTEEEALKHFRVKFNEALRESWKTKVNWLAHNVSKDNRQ
Sequence (P27986 whole entry partner): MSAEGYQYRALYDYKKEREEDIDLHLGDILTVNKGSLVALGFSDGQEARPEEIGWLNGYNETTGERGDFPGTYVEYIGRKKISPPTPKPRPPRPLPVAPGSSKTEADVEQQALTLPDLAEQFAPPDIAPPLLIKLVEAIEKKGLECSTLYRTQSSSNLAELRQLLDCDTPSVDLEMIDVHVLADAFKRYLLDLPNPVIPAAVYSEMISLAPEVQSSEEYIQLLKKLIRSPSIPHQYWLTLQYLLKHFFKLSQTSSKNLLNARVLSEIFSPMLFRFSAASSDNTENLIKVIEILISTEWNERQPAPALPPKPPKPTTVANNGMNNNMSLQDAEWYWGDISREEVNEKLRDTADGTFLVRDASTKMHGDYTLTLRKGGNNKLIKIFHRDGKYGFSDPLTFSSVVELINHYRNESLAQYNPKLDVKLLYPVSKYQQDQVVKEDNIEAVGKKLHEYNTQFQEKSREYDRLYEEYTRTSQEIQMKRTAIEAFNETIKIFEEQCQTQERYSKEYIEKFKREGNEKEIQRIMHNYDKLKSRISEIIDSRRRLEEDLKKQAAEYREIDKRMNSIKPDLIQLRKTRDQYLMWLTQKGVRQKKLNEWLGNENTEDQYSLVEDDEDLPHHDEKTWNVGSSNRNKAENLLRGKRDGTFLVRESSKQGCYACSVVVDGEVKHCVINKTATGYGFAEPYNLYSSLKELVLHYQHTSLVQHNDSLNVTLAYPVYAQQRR
recorded_metric: IC50

Consider the following illustrative entries.
Cc1cccc2cc(CNC(=O)c3nccnc3N)c(NCCc3ccccn3)nc12 [Compound 96] :: 500 to 1500 nM
Cc1ccccc1-c1cc2ccccc2nc1Cn1nc(I)c2c(N)ncnc21 [Compound 145] :: < 50 nM

I need IC50 for every entry listed below, if you could help.
1. Cc1cccc2cc(CNC(=O)c3nccnc3N)c(N3CCCN(Cc4nccn4C)CC3)nc12 [Compound 62]
2. CCCCN(C)c1nc2c(C)cccc2cc1CNc1ncnc2[nH]cnc12 [Compound 26]
3. Cc1cccc2cc(CNC(=O)c3nccnc3N)c(N(C)CCCN(C)C(=O)CN(C)C)nc12 [Compound 136]

1. 500 to 1500 nM
2. 50 to 250 nM
3. < 50 nM

====

target: PI3K delta (Homo sapiens (Human), UniProt O00329); test: Luciferase-coupled chemiluminescence kinase assay (KinaseGlo, ATP consumption)
recorded_metric: IC50

Consider the following illustrative entries.
Cc1ccccc1-c1cc2ccccc2nc1CNc1ncnc2[nH]nc(Br)c12 :: 500 to 1500 nM
Cc1ccccc1-c1cc2c(C)cccc2nc1Cn1nc(I)c2c(N)ncnc21 :: < 50 nM
CC(=O)N1CCN(c2nc3ccccc3nc2Nc2cccc(C(N)=O)c2)CC1 :: 500 to 1500 nM

I need IC50 for every entry listed below, if you could help.
1. Cc1ccccc1-c1cc2ccccc2nc1CNc1ncnc2[nH]cnc12
2. Cc1cccc2cc(Cn3cnc4c(N)ncnc43)c(NC3CCN(C)CC3)nc12
3. Cc1ccccc1-c1cc2ccccc2nc1CNC(=O)c1cnc(N)nc1

["50 to 250 nM", "500 to 1500 nM", "500 to 1500 nM"]

I need IC50 for every entry listed below, if you could help.
1. Cc1cccc2cc(CNC(=O)c3nccnc3N)c(N(C)CCN(C)C(=O)Cn3ccnc3)nc12
2. Nc1nccnc1C(=O)NCc1nc2ccccc2cc1-c1ccccc1CN1CCCCC1
3. CN(C)C(=O)c1ccccc1-c1cc2ccccc2nc1CNC(=O)c1nccnc1N
4. Cc1cccc2cc(Cn3cnc4c(N)ncnc43)c(N3CCNCC3)nc12
5. Cc1cccc2cc(CNC(=O)c3nccnc3N)c(N3CCCN(Cc4ccncc4)CC3)nc12
6. Cc1cccc2cc(CNc3ncnc4[nH]cnc34)c(N(C)CC3CCCN(C)C3)nc12 (stereo not drawn)
7. Cc1cccc2cc(CNC(=O)c3nccnc3N)c(N(C)CC3CCN(C)CC3)nc12
8. Cc1cccc2cc(CNc3ncnc4[nH]cnc34)c(N(C)CC3CCCCN3C)nc12 (stereo not drawn)

< 50 nM
50 to 250 nM
250 to 500 nM
50 to 250 nM
500 to 1500 nM
< 50 nM
< 50 nM
< 50 nM

Which IC50 is listed for "CN(C)Cc1cccc(-c2cc3ccccc3nc2CNC(=O)c2nccnc2N)c1" ?
250 to 500 nM

====

biological target: PI3K delta (Homo sapiens (Human), UniProt O00329); experiment: Luciferase-coupled chemiluminescence kinase assay (KinaseGlo, ATP consumption)
pIC50: −log10 of the molar value.
recorded_metric: pIC50

Consider the following illustrative entries.
Cc1cccc2cc(CNC(=O)c3nccnc3N)c(N(C)CC3CCCN(C)C3)nc12 (stereo not shown) [Compound 30] :: > 7.30
Cc1cccc2cc(CNC(=O)c3nccnc3N)c(N(C)CCN(C)Cc3ccccn3)nc12 [Compound 68] :: 6.60 to 7.30
Cc1cccc2cc(CNC(=O)c3nccnc3N)c(N3CC(C)NC[C@H]3C)nc12 (stereo in doubt) [Compound 123] :: 6.30 to 6.60
Cc1cccc2cc(Cn3cnc4c(N)ncnc43)c(N(C)CC3CCN(C)CC3)nc12 [Compound 4] :: > 7.30
Cc1cccc2cc(CNC(=O)c3nccnc3N)c(N(C)CCN(C)c3cnccn3)nc12 [Compound 90] :: 5.82 to 6.30

I need pIC50 for every entry listed below, if you could help.
1. Cc1ccccc1-c1cc2ccccc2nc1Cn1cnc2ncnc(N)c21 [Compound 178]
2. Cc1cccc2cc(CNC(=O)c3nccnc3N)c(N(C)CCO)nc12 [Compound 121]

["6.60 to 7.30", "6.60 to 7.30"]

I need pIC50 for every entry listed below, if you could help.
1. Cc1cccc2cc(CNC(=O)c3nccnc3N)c(N3CCCN(C(=O)Cn4ccnc4C)CC3)nc12 [Compound 55]
2. Cc1cccc2nc(CNC(=O)c3nccnc3N)c(-c3ccccc3CN(C)C)cc12 [Compound 52]
3. Cc1cccc2cc(CNC(=O)c3nccnc3N)c(-n3ccnc3)nc12 [Compound 111]
4. CNCCN(C)c1nc2c(C)cccc2cc1Cn1cnc2c(N)ncnc21 [Compound 149]

1. 5.82 to 6.30
2. > 7.30
3. 6.30 to 6.60
4. > 7.30
